assay: Pharmacokinetic analysis of SYN120 tablets, multiple dose once daily (Example 9)
Type: in vivo, human
reported_conditions: both sexes, human, plasma, oral, 600 mg, Day 14, 600 mg QD; geometric mean; read-out: Css
property_name: concentration at 14 day (ng/mL)
Form entry: value (ng/mL) — number only.

Q. concentration at 14 day for NC(=O)NC[C@@H]1CCCc2cc(S(=O)(=O)c3cccc(F)c3)ccc21 [SYN120] ?
A. 2340

---

assay: Pharmacokinetic analysis of SYN120 tablets, single oral dose (Example 8)
Assay type: in vivo, human
reported_conditions: human, plasma, po, 600 mg, single oral dose 600 mg, Cohort G; geometric mean; read-out: AUC0-t
property_name: AUC(0-t) (ng·h/mL)
Answer format: numeric, ng·h/mL implied, no suffix.

Q. So what does the record say about AUC(0-t) for NC(=O)NC[C@@H]1CCCc2cc(S(=O)(=O)c3cccc(F)c3)ccc21 [SYN120] ?
A. 42500
